- Test system: Eμ-Myc lymphoma cells
- TEST: Luciferase assay and light microscopy of luciferased lymphoma cells on stromal layer
- Format: cell-based, mouse
- CONDITION: Mus musculus, 48 h, read-out: IC50 (concentration needed for 50% of maximal inhibition)
MEASURED_PROPERTY: IC50

Entry CC1=C2C[C@H]3[C@@H](CC=C4C[C@@H](O)CC[C@@]43C)[C@@H]2CC[C@]12O[C@@H]1C[C@H](C)CN[C@H]1[C@H]2C has what IC50?
500 to 2000 nM

Where do the numbers come from? From patent US20110044991A1.
